molecular target: AuroraA-TPX2 (Homo sapiens, UniProt O14965); construct: 20 μL of AuroraA-TPX2 KD GST; GST; test: AuroraA-TPX2 Homogeneous Time Resolved Fluorescent (HTRF) kinase assay; format: biochemical; settings: ATP about 1 μM, biotinylated peptide PLK; read-out: average activity in the Aurora kinase A HTRF assay
Sequence (O14965 133-383 limits assumed): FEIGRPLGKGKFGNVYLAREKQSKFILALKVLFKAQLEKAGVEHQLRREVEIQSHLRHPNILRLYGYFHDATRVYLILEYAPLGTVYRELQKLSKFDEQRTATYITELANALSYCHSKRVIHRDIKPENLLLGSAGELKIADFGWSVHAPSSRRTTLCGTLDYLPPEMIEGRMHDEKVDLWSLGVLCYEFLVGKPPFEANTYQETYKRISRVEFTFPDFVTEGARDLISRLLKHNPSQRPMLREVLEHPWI
Sequence (Q9ULW0 1-43 partner limits assumed): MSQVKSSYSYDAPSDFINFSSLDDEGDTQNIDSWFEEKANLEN
pIC50: −log10 of the molar value.
observedProperty: pIC50

As a guide, the following entries are already answered.
smiles	pIC50
c1ccc(-c2nnc(Nc3ccc(Oc4ncncc4-c4ccncc4)cc3)c3ccccc23)cc1	≥ 7.00
CNc1nccc(-c2cccnc2Oc2ccc(Oc3nnc(-c4ccccc4)c4ccccc34)cc2)n1	≥ 7.00

[in] Sample `CNc1cc(-c2cnccc2Oc2ccc(Nc3nnc(-c4ccccc4)c4ccccc34)cc2)ccn1` — what was its pIC50?
[out] ≥ 7.00

The reported measurements were obtained from patent US8686155B2.
